Method Description: gradient 5% acetonitrile 3 min, to 50% in 2 min, to 85% in 15 min, held 3 min, 100 µL/min
Condition Set: column: Zorbax Extend-C18 2.1 x 50 mm; eluents: water / acetonitrile, 0.1% formic acid
Records here are stratified by RP-LC retention time; strata: one = under 800 s, two = from 800 s up to 900 s, three = 900 s and over

Compound | Category Label
CCOCCCNC(=O)N1CCCC(C)(C(=O)NCc2ccc(C)cc2)C1 (stereo not given) | one
Fc1ccc(Cn2cccc2-c2nc(-c3cccnc3)no2)cc1 | three
COc1ccc(C(=O)Nc2nccnc2C(=O)NCc2ccc(Br)cc2)cc1 | three
Cc1noc(C2CN(C(=O)Nc3ccccc3)CC23CCOCC3)n1 (stereo not given) | one
N#CC1=C2CCCCC2(O)NC1=O (stereo not given) | one
COCC1CN(C2CCC2)CC12CCN(C(=O)C1CCN(C(C)=O)CC1)CC2 (stereo not given) | one
CCCn1c(C)cnc1C1CN(S(=O)(=O)Cc2ccccc2)C1 | one
CCc1noc(NC(C)=O)c1-c1ccc(OC)c(S(=O)(=O)NC(C)CC)c1 (stereo not given) | one
Cc1ccc(NC(=O)N2CCC(N3CCN(Cc4ccc(F)cc4)C(=O)C3=O)CC2)c(C)c1 | one
CCc1nc2cc(N3CCC(C(=O)NCc4ccc(F)cc4)CC3)cnc2nc1CC | two
CN1C(=O)COc2ccc(-c3csc(NC(=O)COc4ccc(Cl)cc4)n3)cc21 | three
Cc1nc2c(sc3nc(-c4ccccc4)ccc32)c(=O)n1CC(=O)NCc1ccc(F)cc1 | three
CCN(CC)c1nc2ccsc2c(=O)n1CCC(=O)NCc1ccc(F)cc1 | two
CCc1nncn1C1CCN(S(=O)(=O)c2cc(C)ccc2C)CC1 | one
O=C(c1ccco1)N1CCN(c2ccc(-c3noc(C4CC4)n3)cc2)CC1 | two

====

Method Description: gradient 5% acetonitrile 3 min, to 50% in 2 min, to 85% in 15 min, held 3 min, 100 µL/min
Condition Set: column: Zorbax Extend-C18 2.1 x 50 mm; eluents: water / acetonitrile, 0.1% formic acid

Compound | Units | RP-LC retention time
Cc1ccc(Nc2c(-c3cccc([N+](=O)[O-])c3)nc3ccc(Cl)cn23)cc1 | s | 1100
COc1ccc(NC(=O)c2c(O)c3cccnc3n(-c3ccc(OC)cc3)c2=O)cc1 | s | 800
Cc1ccc(C)c(NC(=O)N2CC(n3cnnc3-c3ccccc3)C2)c1 | s | 712
CCOc1ccc(C(=O)NCc2noc(-c3cccc(Cl)c3)n2)cc1 | s | 963
O=c1c(NCc2ccccn2)nc2ccncc2n1Cc1ccccc1 | s | 578
O=C(Cc1ccc(Cl)cc1)NC1CCN(c2ccc(F)cc2)C1=O (stereo not given) | s | 853
COCCN(Cc1ccc(F)cc1)Cc1cc(=O)c2cc(F)ccc2[nH]1 | s | 815
O=C1CCN(C(=O)c2ccsc2)CCCCCCN1 | s | 652
Cc1ccc(NC(=O)N2CCC(c3cc(N)on3)CC2)cc1Cl | s | 774
Cc1cccc(NC(=O)C2CCN(C(=O)C3Sc4ccccc4NC3=O)CC2)c1C (stereo not given) | s | 753

====

Method Description: gradient 5% acetonitrile 3 min, to 50% in 2 min, to 85% in 15 min, held 3 min, 100 µL/min
Condition Set: column: Zorbax Extend-C18 2.1 x 50 mm; eluents: water / acetonitrile, 0.1% formic acid
Records here are stratified by RP-LC retention time; strata: bucket A = under 700 s, bucket B = from 700 s up to 900 s, bucket C = 900 s and over

Molecule | Category Label
Cc1cccc(NC(=O)CSc2nc(N3CCCCC3)nc3ccccc23)c1 | bucket B
Cc1nnc2cc(N3CCN(S(=O)(=O)c4ccc(C(C)(C)C)cc4)CC3)cnn12 | bucket B
CCCNc1nc(-c2nnc(-c3cccc(C)c3)o2)nc2ccccc12 | bucket C
CC(C)c1ccc(NC(=O)Cn2cnc3nc(N4CCCC(C(=O)NC5CC5)C4)sc3c2=O)cc1 (centres undefined) | bucket B
c1ccc(-c2cn3c(n2)SCC3)cc1 | bucket A
COc1ccc(OC)c(Nc2c(-c3nc(C)no3)cnc3nc(C)ccc23)c1 | bucket A
O=c1n(Cc2c(F)cccc2Cl)nc2c(S(=O)(=O)N3CCc4ccccc4C3)cccn12 | bucket C
COc1ccc(Cl)cc1N1CC(c2nc(-c3ccccc3F)no2)CC1=O (centres undefined) | bucket C
